Counter-ions that a name gives are not always drawn.
Below, each entry is listed alongside its reported melting point.

If you can, please state the reported melting point value of CCN(CC)CCOc1cccc(/C=C/C(=O)/C=C/c2cccc(O)c2)c1 (as salt: succinic acid salt) .
104 to 106 °C

Cool, now `COc1ccc(/C=C/C(=O)/C=C/c2cccc(O)c2)cc1`
152 to 153 °C

Cool, now `O=C(/C=C/c1cccc(O)c1)/C=C/c1ccccc1F`
159 to 160 °C

Cool, now `O=C(/C=C/c1cccc(O)c1)/C=C/c1cccc(C(F)(F)F)c1`
138 to 139 °C

Cool, now `COc1ccc(/C=C/C(=O)/C=C/c2cccc(O)c2)cc1OC`
159 to 160 °C

Cool, now `CCS(=O)(=O)Oc1cccc(/C=C/C(=O)/C=C/c2ccc(OS(=O)(=O)CC)c(OS(=O)(=O)CC)c2)c1`
102 to 103 °C
